Entry source: ChEMBL document CHEMBL4371047

experiment: Therapeutic index, ratio of CC50 for human MT4 cells to EC50 for HIV-1 NL4-3 infected in human MT4 cells; assay type: toxicity, cell-based; conditions: read-out: Ratio CC50/EC50
metric_name: selectivity ratio

The cases that follow already have their selectivity ratio on record.
[[record]]
compound = "CCCN(C)c1nc(C(OC)c2c(F)cccc2Cl)c(C)c(=O)[nH]1 (configuration not stated)"
measured_result = "> 18500"

[[record]]
compound = "COC(c1nc(NC2CCCC2)[nH]c(=O)c1C)c1c(F)cccc1F (configuration not stated)"
measured_result = "82900 to 93200"

[[record]]
compound = "Cc1c(C(C)c2c(F)cccc2F)nc(SC2CCCC2)[nH]c1=O (configuration not stated)"
measured_result = "> 3000"

[[record]]
compound = "COC(c1nc(NC(C)C)[nH]c(=O)c1C)c1c(F)cccc1Cl (configuration not stated)"
measured_result = "> 2670"


API: the following record is the query input.
Ask: Would you kindly share the measured selectivity ratio for CCC(C)Sc1nc(O)c(C)c(C(C)c2c(F)cccc2F)n1 (configuration not stated) ?
Result: > 3330
